B1: OR4K15 (parent)
chain: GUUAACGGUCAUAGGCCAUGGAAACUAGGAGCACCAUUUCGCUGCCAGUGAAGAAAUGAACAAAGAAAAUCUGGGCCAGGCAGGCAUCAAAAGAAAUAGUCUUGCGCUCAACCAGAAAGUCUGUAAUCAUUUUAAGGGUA

Variants of: B1
Test: self-cleavage, relative activity (ratio to wild type); higher = more cleavage; in vitro, sequencing; the parent is a self-cleaving ribozyme
Please use 1 (yes) whenever self-cleavage is not below 0.4, and 0 (no) whenever it is.

U102A A125G: 1 (yes)
U97C G136U: 1 (yes)
A126G A129G: 1 (yes)

Prompt line: Decide: is the reported value of self-cleavage for A114G A118U equal to or greater than 0.4?
Response line: 0 (no)

Prompt line: Continue with U39A C109U
Response line: 0 (no)

Prompt line: Continue with A69G A91U
Response line: 1 (yes)

Prompt line: Continue with G48A U133C
Response line: 1 (yes)

Prompt line: Continue with A36U G48A
Response line: 1 (yes)

Prompt line: Continue with A24G A90U
Response line: 1 (yes)

Prompt line: Continue with C109U A114G
Response line: 0 (no)
